Origin of values: patent US11661397B2

- Test system: HCT-116 cells
- assay_procedure: Inhibition of sphere-forming ability of cancer cells (Test Example 1)
- Type: cell-based
- measurement_conditions: Homo sapiens, 96 h; HCT-116 spheres, non-adherent, serum-free, 4 days, CellTiter-Glo; read-out: Sphere IC50 value (concentration for 50% inhibition of cell proliferation)
measured_attribute: IC50 (nM)
Your answer should be a plain number; it is taken to be in nM.

Answered examples (4):
O=C(Nc1cn(Cc2cc(F)c(F)c(F)c2)cn1)c1cnc(CO)c(Br)c1	61
COc1cc(C(=O)Nc2cn(Cc3cccc(C(F)(F)F)c3)cn2)cnc1CO	9800
O=C(Nc1cn(Cc2cccc(C(F)(F)F)c2)cn1)c1ccc(/C=C/CO)nc1	6040
O=C(Nc1cn(Cc2cccc(C(F)(F)F)c2)cn1)c1cnc(C(O)CO)c(Cl)c1 (centres unmarked)	847

// moving on: another record for IC50
Query string: Lookup: IC50 / HCT-116 cells / O=C(Nc1cn(Cc2cc(F)c(F)c(F)c2)cn1)c1ccc(CCO)nc1
Result string: 675

###

- Tested on: HCT-116 cells
- assay_procedure: Inhibition of sphere-forming ability of cancer cells (Test Example 1)
- Format: cell-based
- measurement_conditions: Homo sapiens, 96 h; HCT-116 spheres, non-adherent, serum-free, 4 days, CellTiter-Glo; read-out: Sphere IC50 value (concentration for 50% inhibition of cell proliferation)
Please use true (1) for IC50 under 80 nM and false (0) for everything else, ties included.

O=C(Nc1cn(Cc2cc(F)c(F)c(F)c2)cn1)c1csc(CO)n1 [Example 8]	true (1)

Query string: Decide: IC50 of CCc1cc(C(=O)Nc2cn(Cc3cccc(C(F)(F)F)c3)cn2)cnc1CO [Example 44] strictly below 80 nM?
Result string: false (0)

Query string: Decide: IC50 of O=C(/C=C/c1ccc(CO)nc1)Nc1cn(Cc2cccc(C(F)(F)F)c2)cn1 [Example 51] strictly below 80 nM?
Result string: true (1)

Query string: Decide: IC50 of Cc1nc(CO)ccc1C(=O)Nc1cn(Cc2cccc(C(F)(F)F)c2)cn1 [Example 34] strictly below 80 nM?
Result string: false (0)

Query string: Decide: IC50 of CCOCc1ccc(C(=O)Nc2cn(Cc3cc(F)c(F)c(F)c3)cn2)cn1 [Example 16] strictly below 80 nM?
Result string: false (0)

###

- Test system: HCT-116 cells
- assay_procedure: Inhibition of sphere-forming ability of cancer cells (Test Example 1)
- Assay type: cell-based
- measurement_conditions: Homo sapiens, 96 h; HCT-116 spheres, non-adherent, serum-free, 4 days, CellTiter-Glo; read-out: Sphere IC50 value (concentration for 50% inhibition of cell proliferation)
Recorded pIC50 values for a group of compounds are listed next.
To interpret pIC50, take it as minus log10 of a concentration measured in moles per litre.

Query string: Which value of pIC50 has been reported for O=C(Nc1cn(Cc2cccc(Cl)c2)cn1)c1ccc(CO)nc1 in the records?
Result string: 7.25

Query string: Which value of pIC50 has been reported for O=C(Nc1cn(Cc2cc(F)cc(C(F)(F)F)c2)cn1)c1cnc(CO)c(C(F)F)c1 in the records?
Result string: 7.52

Query string: Which value of pIC50 has been reported for O=C(Nc1cn(Cc2ccc(Cl)c(F)c2)cn1)c1cnc(CO)c(C(F)F)c1 in the records?
Result string: 7.15

Query string: Which value of pIC50 has been reported for Cc1cccc(Cn2cnc(NC(=O)c3cnc(CO)c(C(F)F)c3)c2)c1 in the records?
Result string: 6.16

Query string: Which value of pIC50 has been reported for O=C(Nc1cn(Cc2cccc(Br)c2)cn1)c1cnc(CO)c(C(F)F)c1 in the records?
Result string: 7.15

Query string: Which value of pIC50 has been reported for C=C(CO)c1ccc(C(=O)Nc2cn(Cc3cccc(C(F)(F)F)c3)cn2)cn1 in the records?
Result string: 6.15

Query string: Which value of pIC50 has been reported for C=Cc1cc(C(=O)Nc2cn(Cc3cccc(C(F)(F)F)c3)cn2)cnc1CO in the records?
Result string: 5.25

Query string: Which value of pIC50 has been reported for O=C(Nc1cn(Cc2cccc(C(F)(F)F)c2)cn1)c1cnc(CO)c(C(F)(F)F)c1 in the records?
Result string: 7.15

Query string: Which value of pIC50 has been reported for CC(O)c1ccc(C(=O)Nc2cn(Cc3cccc(C(F)(F)F)c3)cn2)cn1 (centres unmarked) in the records?
Result string: 5.44

Query string: Which value of pIC50 has been reported for O=C(Nc1cn(Cc2cc(F)c(F)c(F)c2)cn1)c1ccc(CO)nn1 in the records?
Result string: 7.70

Query string: Which value of pIC50 has been reported for O=C(Nc1cn(Cc2cc(F)cc(Cl)c2)cn1)c1cnc(CO)c(C(F)F)c1 in the records?
Result string: 7.30

Query string: Which value of pIC50 has been reported for Nc1cc(C(=O)Nc2cn(Cc3cccc(C(F)(F)F)c3)cn2)cnc1CO in the records?
Result string: 7.54

###

Recorded pIC50 values for a group of compounds are listed next.
- System: HCT-116 cells
- assay_procedure: Inhibition of sphere-forming ability of cancer cells (Test Example 1)
- Assay type: cell-based
- measurement_conditions: Homo sapiens, 96 h; HCT-116 spheres, non-adherent, serum-free, 4 days, CellTiter-Glo; read-out: Sphere IC50 value (concentration for 50% inhibition of cell proliferation)
To interpret pIC50, take it as minus log10 of a concentration measured in moles per litre.

Answered examples (2):
O=C(Nc1cn(Cc2cccc(C(F)(F)F)c2)cn1)c1cnc(CO)cc1Cl	7.13
O=C(Nc1ccc2nc(CO)ccc2c1)c1cn(Cc2cc(F)c(F)c(F)c2)cn1	7.10

// moving on: another record for pIC50
Query string: Which value of pIC50 has been reported for O=C(Nc1cn(Cc2cccc(C(F)(F)F)c2)cn1)c1coc(CO)n1 in the records?
Result string: 6.62

###

- Tested on: HCT-116 cells
- assay_procedure: Inhibition of sphere-forming ability of cancer cells (Test Example 1)
- Assay type: cell-based
- measurement_conditions: Homo sapiens, 96 h; HCT-116 spheres, non-adherent, serum-free, 4 days, CellTiter-Glo; read-out: Sphere IC50 value (concentration for 50% inhibition of cell proliferation)
Recorded IC50 values for a group of compounds are listed next.
Your answer should be a plain number; it is taken to be in nM.

Answered examples (3):
O=C(Nc1cn(Cc2cccc(C(F)(F)F)c2)cn1)c1cnc(C(O)CO)c(Br)c1 (centres unmarked)	633
O=C(/C=C/c1cnc(CO)c(Cl)c1)Nc1cn(Cc2cccc(C(F)(F)F)c2)cn1	50
Nc1cc(C(=O)Nc2cn(Cc3cc(F)c(F)c(F)c3)cn2)cnc1CO	10

Query string: Which value of IC50 has been reported for CC(=O)NCc1ccc(C(=O)Nc2cn(Cc3cccc(C(F)(F)F)c3)cn2)cn1 in the records?
Result string: 4480

Query string: Which value of IC50 has been reported for O=C(Nc1cn(Cc2cccc(C(F)(F)F)c2)cn1)c1cnc(CO)s1 in the records?
Result string: 122

Query string: Which value of IC50 has been reported for CNCc1ccc(C(=O)Nc2cn(Cc3cccc(C(F)(F)F)c3)cn2)cn1 in the records?
Result string: 824

Query string: Which value of IC50 has been reported for O=C(Nc1cn(Cc2cccc(C(F)(F)F)c2)cn1)c1ccc(CO)cn1 in the records?
Result string: 30

Query string: Which value of IC50 has been reported for O=C(Nc1cn(Cc2ccc(F)c(F)c2)cn1)c1cnc(CO)c(C(F)F)c1 in the records?
Result string: 148

###

Recorded IC50 values for a group of molecules are listed next.
- Tested on: HCT-116 cells
- assay_procedure: Inhibition of sphere-forming ability of cancer cells (Test Example 1)
- Type: cell-based
- measurement_conditions: Homo sapiens, 96 h; HCT-116 spheres, non-adherent, serum-free, 4 days, CellTiter-Glo; read-out: Sphere IC50 value (concentration for 50% inhibition of cell proliferation)

Answered examples (5):
Cc1cc(C(=O)Nc2cn(Cc3cc(F)c(F)c(F)c3)cn2)cnc1CO [Example 39]	< 10 nM
O=C(Nc1cn(Cc2cccc(C(F)(F)F)c2)cn1)c1cnc(CO)c(Cl)c1 [Example 31]	< 10 nM
O=C(Nc1ccc(CO)nc1)c1cn(Cc2cc(F)c(F)c(F)c2)cn1 [Example 22]	< 10 nM
O=C(Nc1cn(Cc2cccc(C(F)(F)F)c2)cn1)c1cnc(CO)c(C(F)F)c1 [Example 17]	< 10 nM
O=C(Nc1nc(CO)cs1)c1cn(Cc2cc(F)c(F)c(F)c2)cn1 [Example 3]	< 10 nM

// moving on: another record for IC50
Query string: Lookup: IC50 / HCT-116 cells / O=C(Nc1cn(Cc2ccc(Cl)c(Cl)c2)cn1)c1cnc(CO)c(C(F)F)c1 [Example 71]
Result string: < 10 nM
